target: PVNZ112.3-CBP (Parapoxvirus of red deer in New Zealand (PVNZ), strain RD86); assay: SPR; CBP-FLAG immobilised by amine coupling on a CM5 chip (300-400 RU, 10 mM sodium acetate pH 4.5); serial dilutions of mouse chemokine flowed in triplicate for 3 min, 10 min dissociation; 25°C; HBS-EP buffer (20 mM HEPES, 150 mM NaCl, 3.4 mM EDTA, 0.005% Polysorbate 20, pH 7.4); Biacore X100; global fit with a 1:1 binding model
MEASUREMENT KIND: kon
Please report the result as a number followed by the unit.

BINDER	kon
recombinant mouse CXCL1 (ligand) APIANELRCQCLQTMAGIHLKNIQSLKVLPSGPHCTQTEVIATLKNGREACLDPEAPLVQKIVQKMLKGVPK	2.54e+06 M⁻¹ s⁻¹
recombinant mouse CXCL2 (ligand) AVVASELRCQCLKTLPRVDFKNIQSLSVTPPGPHCAQTEVIATLKGGQKVCLDPEAPLVQKIIQKILNKGKAN	1.79e+06 M⁻¹ s⁻¹

What measured kon goes with recombinant mouse CXCL4 (ligand) VTSAGPEESDGDLSCVCVKTISSGIHLKHITSLEVIKAGRHCAVPQLIATLKNGRKICLDRQAPLYKKVIKKILES ?
1.29e+06 M⁻¹ s⁻¹

For recombinant mouse CXCL10 (ligand) IPLARTVRCNCIHIDDGPVRMRAIGKLEIIPASLSCPRVEIIATMKKNDEQRCLNPESKTIKNLMKAFSQKRSKRAP , what is its reported kon?
240000 M⁻¹ s⁻¹

Request the reported kon associated with recombinant mouse CCL19 (ligand) GANDAEDCCLSVTQRPIPGNIVKAFRYLLNEDGCRVPAVVFTTLRGYQLCAPPDQPWVDRIIRRLKKSSAKNKGNSTRRSPVS
10000 M⁻¹ s⁻¹
